- measuredOn: Human FP Receptor (Homo sapiens (Human))
- Sequence (P43088 whole entry): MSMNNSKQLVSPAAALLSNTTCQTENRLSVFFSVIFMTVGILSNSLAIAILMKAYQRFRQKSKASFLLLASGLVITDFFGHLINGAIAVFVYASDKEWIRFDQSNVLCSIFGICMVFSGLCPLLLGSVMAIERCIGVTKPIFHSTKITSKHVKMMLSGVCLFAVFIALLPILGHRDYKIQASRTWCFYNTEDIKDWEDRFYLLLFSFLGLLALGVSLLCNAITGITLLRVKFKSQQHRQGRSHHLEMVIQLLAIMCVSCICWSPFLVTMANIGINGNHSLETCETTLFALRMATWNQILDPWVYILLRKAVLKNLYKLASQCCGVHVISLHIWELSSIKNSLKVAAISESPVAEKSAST
- assayProtocol: In vitro test of inhibition of human FP receptor activity, variant B-1A (PGF2α-induced calcium flux in FP-expressing CHEM1 cells)
- Type: cell-based
- measurementContext: calcium flux induced by 3 nM PGF2α, Fluo-8, some mean values from multiple determinations
readout: IC50 (nM)

compound: Cc1c(-c2ccc(F)cc2)nc2ccc(Br)cc2c1C(=O)Nc1ccc(C(=O)O)cc1F [Example 43]
resultNumber: 52
--
compound: O=C(O)c1ccc(NC(=O)c2c(C3CC3)c(-c3ccccc3)nc3ccc(Br)cc23)c(F)c1 [Example 77]
resultNumber: 27
--
compound: CCNC(=O)Nc1cc(C(=O)O)ccc1NC(=O)c1c(C)c(-c2ccccc2)nc2ccc(Br)cc12 [Example 20]
resultNumber: 530
--
compound: Cc1c(-c2ccccc2)nc2ccc(Br)cc2c1C(=O)Nc1ncc(C(=O)O)cc1F [Example 6]
resultNumber: 79
--
compound: Cc1cc(C(=O)O)ccc1NC(=O)c1c(C)c(-c2ccccc2)nc2ccc(Br)cc12 [Example 14]
resultNumber: 617

Reference source: patent US10189788B2
